# experiment: Assay C: permeability in CACO-2 cells
# Format: in vitro ADME
# assay setup: human, pH 7.2; Caco-2, apical to basolateral; compounds of the invention, Table 7
attribute measured: Papp A→B (×10⁻⁶ cm/s)

COc1cncc(-c2cccc(C#N)c2N2CCC(c3nncn3C)CC2)c1	4.5

[A] Cc1c(-c2cccc(C#N)c2N2CCC(c3nncn3C)CC2)cncc1-n1cccn1
[B] Cn1cnnc1C1(F)CCN(c2c(C#N)cccc2-c2cnc(=O)n(Cc3ccccc3)c2)CC1
[C] CC(C)Oc1cc(-c2cccc(C#N)c2N2CCC(c3nncn3C)CC2)cnc1F
[D] Cn1cnnc1C1CCN(c2c(C#N)cccc2-c2cnn3ncccc23)CC1
[E] Cn1cnnc1C1(F)CCN(c2c(C#N)cccc2-c2cnc3ncccc3c2)CC1
Order the records, beginning with the lowest Papp A→B and ending with the highest. Answer by naming the labels in the order asked. B, E, D, A, C

[I] Cn1cnnc1C1CCN(c2c(C#N)cccc2-c2cncc(F)c2)CC1
[II] Cn1cnnc1C1(F)CCN(c2c(C#N)cccc2-c2cnc3nc(C(F)(F)F)nn3c2)CC1
// max by Papp A→B over [ I , II ] Please respond with the label that marks your chosen entry. I

* * *

# experiment: Assay C: permeability in CACO-2 cells
# Type: in vitro ADME
# assay setup: human, pH 7.2; Caco-2; compounds of the invention, Table 7
attribute measured: efflux ratio

Example entries and their recorded answers appear below.
Cn1cnnc1C1(F)CCN(c2c(C#N)cccc2-c2cnc3nc(C(F)(F)F)nn3c2)CC1	14.8
Cn1cnnc1C1(F)CCN(c2c(C#N)cccc2-c2cnc3nc(C(C)(C)C)[nH]c3c2)CC1	56.9

[A] Cn1cnnc1C1(F)CCN(c2c(C#N)cccc2-c2cnc3nn(CC(F)F)cc3c2)CC1
[B] Cn1cc2cc(-c3cccc(C#N)c3N3CCC(c4nncn4C)CC3)cnc2n1
Between item A and item B , which reported efflux ratio is smaller? Refer to your chosen entry by its label in the reply. B
(B: 50.6, A: 100)

* * *

# Tested on: SIRPα signalling induced by Raji cells
# experiment: Assay B: SIRPα signalling assay using Raji cells
# Format: cell-based, human
# assay setup: Homo sapiens, compounds of the invention, Table 4, read-out: Inhibition of SIRα signalling induced by Raji cells: IC50
# Description: Bioassay reagent 1 of the PathHunter Bioassay detection kit (DiscoverX 93-0001) was added to each well of the plate using a multichannel pipette followed by a 15 min incubation at room temperature. […] The analysis of the data was performed using the luminescence signal generated by beta-galactosidase in the PathHunter reporter cell line. The luminescence measurement was done using a Pherastar Multi-Mode Reader.
attribute measured: IC50 (nM)

Previously resolved entries follow.
Cn1cnnc1C1CCN(c2c(C#N)cccc2-c2cnc(F)c(OC3CC3)c2)CC1	77
Cn1cnnc1C1CCN(c2c(C#N)cccc2-c2cncnc2)CC1	782

[A] Cn1cnnc1C1CCN(c2c(C#N)cccc2-c2cnc3c(c2)OCO3)CC1
[B] COc1cc(-c2cccc(C#N)c2N2CCC(F)(c3nncn3C)CC2)cnc1F
[C] Cn1cnnc1C1(F)CCN(c2c(C#N)cccc2-c2cnc3nn(C(F)(F)F)cc3c2)CC1
Put the items in sequence by IC50, from largest down. Give the labels in the order specified. A, B, C
(A: 566 nM, B: 81 nM, C: 7 nM)

* * *

# experiment: Assay C: permeability in CACO-2 cells
# Format: in vitro ADME
# assay setup: human, pH 7.2; Caco-2; compounds of the invention, Table 7
attribute measured: efflux ratio

Solved entries:
Cn1cnnc1C1CCN(c2c(C#N)cccc2-c2cnc3nonc3c2)CC1	19.3
Cc1cc(-c2cccc(C#N)c2N2CCC(F)(c3nncn3C)CC2)cnc1F	1.6
Cc1cc(-c2cccc(C#N)c2N2CCC(c3nncn3C)CC2)cnc1F	1.6

[a] Cn1cnnc1C1CCN(c2c(C#N)cccc2-c2cncc3cn(Cc4ccccc4)nc23)CC1
[b] Cn1cnnc1C1(F)CCN(c2c(C#N)cccc2-c2cnc3nc(-c4cccc(Cl)c4)ccn23)CC1
[c] COc1cc(-c2cccc(C#N)c2N2CCC(c3nncn3C)CC2)cnc1F
[d] COc1cc(-c2cccc(C#N)c2N2CCC(c3nncn3C)CC2)cnn1
Ascending sort, efflux ratio. Put the labels in the requested order and list them out. b, c, d, a

[I] Cn1cnnc1C1(F)CCN(c2c(C#N)cccc2-c2cnc3ncccc3c2)CC1
[II] Cn1cnnc1C1(F)CCN(c2c(C#N)cccc2-c2ccnnc2)CC1
Please indicate which item has the smaller measured efflux ratio: I versus II Answer by quoting the chosen item's label. II
(II: 1.1, I: 47.5)

[I] Cn1cnnc1C1CCN(c2c(C#N)cccc2-c2cncc(-n3cccn3)c2)CC1 [compound 6, reference compound]
[II] Cn1cnnc1C1CCN(c2c(C#N)cccc2-c2ccnnc2)CC1
[III] Cn1cnnc1C1CCN(c2c(C#N)cccc2-c2cnc(F)c(OC3CC3)c2)CC1
Place the items in sequence of falling efflux ratio. Sort and list the labels as requested. II, I, III

[A] Cn1cnnc1C1CCN(c2c(C#N)cccc2-c2cncc3cnn(Cc4ccccc4)c23)CC1
[B] Cn1cnnc1C1(F)CCN(c2c(C#N)cccc2-c2cnc3nn(C(C)(C)C)c(Cl)c3c2)CC1
Which gives the smaller efflux ratio number: A or B ? Bench note: the answer is the label of the chosen record. B
(B: 1.6, A: 22.3)

[A] Cn1cnnc1C1CCN(c2c(C#N)cccc2-c2cnc3nnn(C)c3c2)CC1
[B] Cn1cnnc1C1CCN(c2c(C#N)cccc2-c2cncc(F)c2)CC1
Among A and B , which shows a numerically higher efflux ratio result? Kindly give the label for the entry you pick. A
(A: 100, B: 7.4)
